target: σ1 receptor and the μ-opiod receptor; assay: μ and σ1 dual binding: combined class from the Ki of both radioligand assays; design: species or system human; details: transfected HEK-293 membranes (σ1), transfected CHO-K1 cell membranes (μ)
Items are presented alongside their recorded Ki range for both μ and σ1 (dual-binding class).

Below: 3 molecules and their reported Ki range for both μ and σ1 (dual-binding class).
Oc1cc(C2CCN(Cc3cn(Cc4ccccn4)nn3)CC2)ccc1F [Example 136] :: < 0.5 µM
OCC(c1ccccc1)n1cc(CN2CCC(c3cccc(O)c3)CC2)nn1 (stereo not shown) [Example 67] :: < 0.5 µM
CS(=O)(=O)Nc1cccc(C2CCN(Cc3cn(-c4ccccc4F)nn3)CC2)c1 [Example 27] :: < 0.1 µM

From here, focus on the item given below.
In: Reported Ki range for both μ and σ1 (dual-binding class), molecule CS(=O)(=O)Nc1ccnc(C2CCN(Cc3cn(-c4ccccc4)nn3)CC2)c1 [Example 193] : ____
Out: ≥ 0.5 µM
